Where these numbers come from: patent US12281363B2

# Tested on: HSV-1
# Method Description: Plaque reduction assay, HSV-1 clinical isolates on Vero cells
# Assay type: cell-based
# Assay Conditions: Human alphaherpesvirus 1, Vero, isolate HPG033, HSV-1 TK I358L (1072A>C); also TK T287M; read-out: Drug susceptibility Cidofovir (CDV)
pIC50: −log10 of the molar value.
Measure: pIC50

[
  {
    "Compound String": "Nc1ccn(C[C@@H](CO)OCP(=O)(O)O)c(=O)n1",
    "Reported Measurement": "> 4.62"
  }
]

====

# System: HSV-2
# Method Description: Plaque reduction assay, HSV-2 clinical isolates on Vero cells
# Format: cell-based
# Assay Conditions: Human alphaherpesvirus 2, Vero, read-out: Drug susceptibility Aciclovir (ACV), isolate HPG058, HSV-2 TK 183stop or P154fs (458delC, 459delC, 460delC, or 461delC)

[
  {
    "Compound String": "Nc1nc2c(ncn2COCCO)c(=O)[nH]1",
    "IC50": "6.5 to 40 µM"
  }
]

====

# Tested on: HSV-2
# Method Description: Plaque reduction assay, HSV-2 clinical isolates on Vero cells
# Assay type: cell-based
# Assay Conditions: Human alphaherpesvirus 2, Vero, isolate HPG048, HSV-2 pol E761K (2281G>A); also TK Q90stop; read-out: Drug susceptibility Penciclovir (PCV)
# Text: Viral isolates were used to infect a sub-confluent monolayer of Vero cells at a concentration of 75 or 50 plaque forming units (PFU) per well for HSV-1 and HSV-2, respectively. […] CMC medium typically used to create a semisolid interface and prevents indiscrimate viral spreading. Other materials (e.g. agar) may also be used to create this interface. […]
Measure: IC50

[
  {
    "Compound": "Nc1nc2c(ncn2CCC(CO)CO)c(=O)[nH]1 [Penciclovir, penciclovir]",
    "Reported Measurement": "> 40 µM"
  }
]

====

List of IC50 values.
# Tested on: HSV-1
# Method Description: Plaque reduction assay, HSV-1 clinical isolates on Vero cells
# Assay type: cell-based
# Assay Conditions: Human alphaherpesvirus 1, Vero, isolate HPG014, HSV-1 pol R993C (2977C>T); read-out: Drug susceptibility (IC50 value)
Measure: IC50

[
  {
    "Compound": "O=C(O)P(=O)(O)O [Foscarnet, foscarnet]",
    "Reported Measurement": "141 µM"
  },
  {
    "Compound": "Nc1ccn(C[C@@H](CO)OCP(=O)(O)O)c(=O)n1 [Cidofovir, cidofovir]",
    "Reported Measurement": "17.2 µM"
  },
  {
    "Compound": "Nc1nc2c(ncn2CCC(CO)CO)c(=O)[nH]1 [Penciclovir, penciclovir]",
    "Reported Measurement": "5.66 µM"
  },
  {
    "Compound": "Nc1nc2c(ncn2COCCO)c(=O)[nH]1 [Aciclovir, acyclovir]",
    "Reported Measurement": "1.41 µM"
  }
]

====

# Tested on: HSV-1
# Method Description: Plaque reduction assay, HSV-1 clinical isolates on Vero cells
# Assay type: cell-based
# Assay Conditions: Human alphaherpesvirus 1, Vero, isolate HPG041, HSV-1 pol S911N (2732G>A); also pol A1169T; read-out: Drug susceptibility Foscarnet (FOS)
Measure: IC50

[
  {
    "Compound": "O=C(O)P(=O)(O)O [Foscarnet, foscarnet]",
    "Measured On": "HSV-1",
    "Reported Measurement": "< 250 µM"
  }
]

====

# System: HSV-1
# Method Description: Plaque reduction assay, HSV-1 clinical isolates on Vero cells
# Assay type: cell-based
# Assay Conditions: Human alphaherpesvirus 1, Vero, isolate HPG042, HSV-1 pol A972V (2915C>T); also TK deletion (C) nt 881-885, pol A1169T; read-out: Drug susceptibility Penciclovir (PCV)
pIC50: −log10 of the molar value.

[
  {
    "Compound": "Nc1nc2c(ncn2CCC(CO)CO)c(=O)[nH]1 [Penciclovir, penciclovir]",
    "pIC50": "< 4.40"
  }
]

====

# Test system: HSV-1
# Method Description: Plaque reduction assay, HSV-1 clinical isolates on Vero cells
# Type: cell-based
# Assay Conditions: Human alphaherpesvirus 1, Vero, read-out: Drug susceptibility Aciclovir (ACV), isolate HPG035, HSV-1 pol S239L (716C>T); also pol S724N
pIC50: −log10 of the molar value.

[
  {
    "Compound": "Nc1nc2c(ncn2COCCO)c(=O)[nH]1 [Aciclovir, acyclovir]",
    "pIC50": "4.40 to 5.52"
  }
]

====

# System: HSV-1
# Method Description: Plaque reduction assay, HSV-1 clinical isolates on Vero cells
# Format: cell-based
# Assay Conditions: Human alphaherpesvirus 1, Vero, isolate HPG014, HSV-1 pol R993C (2977C>T); read-out: Drug susceptibility Cidofovir (CDV)
pIC50: −log10 of the molar value.

[
  {
    "Compound String": "Nc1ccn(C[C@@H](CO)OCP(=O)(O)O)c(=O)n1",
    "Measured On": "HSV-1",
    "pIC50": "> 4.62"
  }
]

====

# System: HSV-2
# Method Description: Plaque reduction assay, HSV-2 clinical isolates on Vero cells
# Format: cell-based
# Assay Conditions: Human alphaherpesvirus 2, Vero, isolate HPG001, HSV-2 TK A125T (373G>A); read-out: Drug susceptibility (IC50 value)
IC50 reference

[
  {
    "Compound String": "O=C(O)P(=O)(O)O",
    "IC50, µM": 236
  },
  {
    "Compound String": "Nc1nc2c(ncn2COCCO)c(=O)[nH]1",
    "IC50, µM": 1.53
  },
  {
    "Compound String": "Nc1nc2c(ncn2CCC(CO)CO)c(=O)[nH]1",
    "IC50, µM": 8.2
  }
]

====

# Tested on: HSV-1
# Method Description: Plaque reduction assay, HSV-1 clinical isolates on Vero cells
# Type: cell-based
# Assay Conditions: Human alphaherpesvirus 1, Vero, isolate HPG042, HSV-1 pol G22R (64G>A); also TK deletion (C) nt 881-885, pol A1169T; read-out: Drug susceptibility Penciclovir (PCV)
# Source text: Viral isolates were used to infect a sub-confluent monolayer of Vero cells at a concentration of 75 or 50 plaque forming units (PFU) per well for HSV-1 and HSV-2, respectively. […] CMC medium typically used to create a semisolid interface and prevents indiscrimate viral spreading. Other materials (e.g. agar) may also be used to create this interface. […]
Measure: IC50

[
  {
    "Compound String": "Nc1nc2c(ncn2CCC(CO)CO)c(=O)[nH]1",
    "Measure": "IC50",
    "Reported Measurement": "> 40 µM"
  }
]

====

Measured pIC50, listed per entry.
# System: HSV-2
# Method Description: Plaque reduction assay, HSV-2 clinical isolates on Vero cells
# Assay type: cell-based
# Assay Conditions: Human alphaherpesvirus 2, Vero, isolate HPG022, HSV-2 TK E213D (639A>C); read-out: Drug susceptibility (IC50 value)
# Description: Viral isolates were used to infect a sub-confluent monolayer of Vero cells at a concentration of 75 or 50 plaque forming units (PFU) per well for HSV-1 and HSV-2, respectively. […] CMC medium typically used to create a semisolid interface and prevents indiscrimate viral spreading. Other materials (e.g. agar) may also be used to create this interface. […]
pIC50: −log10 of the molar value.

[
  {
    "Molecule": "Nc1nc2c(ncn2CCC(CO)CO)c(=O)[nH]1 [Penciclovir, penciclovir]",
    "pIC50": 4.57
  },
  {
    "Molecule": "O=C(O)P(=O)(O)O [Foscarnet, foscarnet]",
    "pIC50": 4.09
  },
  {
    "Molecule": "Nc1nc2c(ncn2COCCO)c(=O)[nH]1 [Aciclovir, acyclovir]",
    "pIC50": 5.35
  }
]

====

# Tested on: HSV-1
# Method Description: Plaque reduction assay, HSV-1 clinical isolates on Vero cells
# Assay type: cell-based
# Assay Conditions: Human alphaherpesvirus 1, Vero, isolate HPG019, HSV-1 pol K750T (2249A>C); also TK deletion (G) nt 430-436, pol A1169T; read-out: Drug susceptibility Penciclovir (PCV)
pIC50: −log10 of the molar value.

[
  {
    "Compound String": "Nc1nc2c(ncn2CCC(CO)CO)c(=O)[nH]1",
    "pIC50": "< 4.40"
  }
]

====

# Tested on: HSV-1
# Method Description: Plaque reduction assay, HSV-1 clinical isolates on Vero cells
# Format: cell-based
# Assay Conditions: Human alphaherpesvirus 1, Vero, isolate HPG021, HSV-1 pol R681Q (2042G>A); also TK deletion (G) nt 430-436; read-out: Drug susceptibility (IC50 value)
# Source text: Viral isolates were used to infect a sub-confluent monolayer of Vero cells at a concentration of 75 or 50 plaque forming units (PFU) per well for HSV-1 and HSV-2, respectively. […] CMC medium typically used to create a semisolid interface and prevents indiscrimate viral spreading. Other materials (e.g. agar) may also be used to create this interface. […]

[
  {
    "Compound String": "Nc1nc2c(ncn2CCC(CO)CO)c(=O)[nH]1",
    "IC50": "> 160 µM"
  },
  {
    "Compound String": "O=C(O)P(=O)(O)O",
    "IC50": "156 µM"
  },
  {
    "Compound String": "Nc1nc2c(ncn2COCCO)c(=O)[nH]1",
    "IC50": "> 40 µM"
  },
  {
    "Compound String": "Nc1ccn(C[C@@H](CO)OCP(=O)(O)O)c(=O)n1",
    "IC50": "< 1.56 µM"
  }
]
